The measurements presented in this section are drawn from patent US12509460B2.

tested on: MDR1-MDCK cell monolayers; experiment: Blood-brain-barrier (BBB) penetration potential via MDCK-MDR1 permeability assay; conditions: B-A
# MDCK-MDR1: % Recov B-A annotations
The answer is to be given in %; state only the numeric part.

{"molecule": "CN(c1ccc(-c2cc3ncn(C)c(=O)c3cc2O)nn1)[C@@H]1C[C@H]2CC[C@@H]([C@@H]1F)N2C [Compound 101A]", "reading": 109}
{"molecule": "CN(c1ccc(-c2cc(F)c(-n3ccnn3)cc2O)nn1)[C@H]1C[C@@H]2CC[C@H]([C@H]1F)N2C [Compound 103B]", "reading": 94}
{"molecule": "Cc1nc2cc(O)c(-c3ccc(N(C)[C@@H]4C[C@H]5CC[C@H](N5)[C@@H]4F)nn3)cc2s1 [Compound 116A]", "reading": 88}
{"molecule": "Cc1nc2cc(-c3ccc(N(C)[C@H]4C[C@@H]5CC[C@H]([C@H]4F)N5C)nn3)c(O)cc2c(=O)n1C [Compound 105B]", "reading": 119}

**Query** Please tell me the measured MDCK-MDR1: % Recov B-A for CN(c1ccc(-c2cc3c(=O)n(C)cnc3cc2O)nn1)[C@H]1C[C@@H]2CC[C@H]([C@H]1F)N2C [Compound 102B] ; system: MDR1-MDCK cell monolayers.
**Result** 91

**Query** Give MDCK-MDR1: % Recov B-A for Cc1nc2cc(-c3ccc(N(C)[C@@H]4C[C@H]5CC[C@H](N5)[C@@H]4F)nn3)c(O)cc2c(=O)n1C [Compound 114A] tested on MDR1-MDCK cell monolayers.
**Result** 102

###

Listed molecules paired with reported Papp A→B at 120 min, 5 μM
test system: MDR1 (P-gp); assay: in vitro; details: dog, MDCK-MDR1, pH 7.4
Record the value in ×10⁻⁶ cm/s, omitting the unit from your answer.

Some solved cases for reference:
{"molecule": "CN(c1ccc(-c2ccc(-n3ccnc3)cc2O)nn1)[C@H]1C[C@@H]2CC(F)(F)[C@H](C1)N2 [Compound 13B]", "Papp A→B at 120 min, 5 μM (×10⁻⁶ cm/s)": 9.96}
{"molecule": "CN(c1ccc(-c2ccc(-n3cnc(C(=O)NC(C)(C)C)c3)cc2O)nn1)[C@@H]1C[C@H]2CC[C@H](N2)[C@@H]1F (single isomer, unassigned) [Compound 124A]", "Papp A→B at 120 min, 5 μM (×10⁻⁶ cm/s)": 0.34}
{"molecule": "CN1[C@@H]2CC[C@H]1[C@H](F)[C@H](N(c1ccc(-c3cc4oc(C(=O)N5CCC5)cc4cc3O)nn1)C1CC1)C2 (single isomer, unassigned) [Compound 92A]", "Papp A→B at 120 min, 5 μM (×10⁻⁶ cm/s)": 1.23}

**Query** Provide only the value of recorded Papp A→B at 120 min, 5 μM for Cc1nc2cc(-c3ccc(N(C)[C@H]4C[C@@H]5CC[C@H]([C@H]4F)N5C)nn3)c(O)cc2c(=O)n1CC(F)(F)F (single isomer, unassigned) [Compound 130B]
**Result** 0.77

**Query** Determine its reported Papp A→B at 120 min, 5 μM: CN(c1ccc(-c2ccccc2O)nn1)[C@H]1C[C@@H]2CC[C@@H](N2)[C@H]1F (single isomer, unassigned) [Compound 119B]
**Result** 6.13

**Query** Return Papp A→B at 120 min, 5 μM for the following molecule: CN(c1ccc(-c2cc3ncn(CC(F)(F)F)c(=O)c3cc2O)nn1)[C@@H]1C[C@H]2CCC[C@@H]([C@@H]1F)N2C (single isomer, unassigned) [Compound 109A]
**Result** 2.72

**Query** Given the molecule CNC(=O)c1cc(O)c(-c2ccc(N(C)[C@H]3C[C@@H]4CC[C@H]([C@H]3F)N4C)nn2)cc1F (single isomer, unassigned) [Compound 96B] , write its reported Papp A→B at 120 min, 5 μM.
**Result** 2.72

**Query** // Input: CN(c1ccc(-c2cnc(C#N)cc2O)nn1)[C@@H]1C[C@H]2CC[C@H](N2)[C@@H]1F (single isomer, unassigned) [Compound 71A] . Output its Papp A→B at 120 min, 5 μM only.
**Result** 3.87

**Query** Determine its reported Papp A→B at 120 min, 5 μM: CN(c1ccc(-c2cc3c(=O)n(C)cnc3cc2O)nn1)[C@@H]1C[C@H]2CC[C@@H]([C@@H]1F)N2C [Compound 102A]
**Result** 1.43

**Query** // fetch Papp A→B at 120 min, 5 μM given entry CN(c1ccc(-c2ccc(C3CC3)cc2O)nn1)[C@@H]1C[C@H]2CC[C@H](N2)[C@@H]1F (single isomer, unassigned) [Compound 31A]
**Result** 8.77

**Query** Given the molecule O=c1c2cc(O)c(-c3ccc(N(C4CC4)[C@@H]4C[C@H]5CC[C@H](N5)[C@@H]4F)nn3)cc2ncn1CC(F)(F)F (single isomer, unassigned) [Compound 60A] , write its reported Papp A→B at 120 min, 5 μM.
**Result** 0.44

**Query** Check the records and state Papp A→B at 120 min, 5 μM for CN(c1ccc(-c2cc3occc(=O)c3cc2O)nn1)[C@@H]1C[C@H]2CC[C@@H]([C@@H]1F)N2C (single isomer, unassigned) [Compound 94A]
**Result** 4.99
